All figures here come from ChEMBL document CHEMBL4390682.

species on record: Rattus norvegicus; test: Neuroprotective activity in Sprague-Dawley rat CGN cells assessed as protection against H2O2-induced cytotoxicity by measuring increase in cell viability at 5 to 100 uM pre-incubated for 24 hrs before H2O2 stimulation for 24 hrs by MTT assay; type: functional
Calls of active or inactive are those of the source. No cut-off for these calls is given here.
Write down the outcome that applies. Available outcomes: 1 (yes) (active), 0 (no) (inactive)

Could you check what this test reported for `O=c1cc(-c2ccc(O)c(O)c2)oc2cc(O)cc(O)c12` ?
1 (yes)

Could you check what this test reported for `O=c1c(O[C@@H]2O[C@H](CO)[C@@H](O)[C@H](O)[C@H]2O)c(-c2ccc(O)c(O)c2)oc2cc(O)cc(O)c12` ?
1 (yes)

Could you check what this test reported for `O=c1c(O)c(-c2ccc(O)c(O)c2)oc2cc(O)cc(O)c12` ?
1 (yes)

Could you check what this test reported for `COc1c(-c2ccc(O)c(O)c2)oc2cc(O)cc(O)c2c1=O` ?
0 (no)
